Biological target: integrin αVβ3 (Homo sapiens, UniProt P05106+P06756)
Construct: using the isolated extracellular domain of integrins αVβ3 and α5β1; purchased Sino Biological
Test: ELISA-like competitive integrin binding assay (vitronectin-coated plates)
Settings: isolated extracellular domain of human integrin αVβ3, ligand vitronectin; Cilengitide as reference on all plates
Collected IC50 values appear next to each entry.
Return type: number; implicit unit nM.

{"molecule": "O=C(NC(Cc1ccc(OCCCNC2=NCCCN2)cc1)C(=O)O)c1ccc(O)cc1 (centres unmarked)", "tested_target": "integrin αVβ3 (Homo sapiens, UniProt P05106+P06756)", "numeric_readout": 70.4}
{"molecule": "O=C(NC(Cc1ccc(OCCCCCNc2ncccn2)cc1)C(=O)O)c1cccc(O)c1 (centres unmarked)", "tested_target": "integrin αVβ3 (Homo sapiens, UniProt P05106+P06756)", "numeric_readout": 2890}
{"molecule": "O=C(NC(Cc1ccc(OCCCCNC2=NCCCN2)cc1)C(=O)O)c1ccccc1 (centres unmarked)", "tested_target": "integrin αVβ3 (Homo sapiens, UniProt P05106+P06756)", "numeric_readout": 32.8}
{"molecule": "O=C(NC(Cc1ccc(OCCCCNc2ncccn2)cc1)C(=O)O)c1cccc(O)c1 (centres unmarked)", "tested_target": "integrin αVβ3 (Homo sapiens, UniProt P05106+P06756)", "numeric_readout": 1850}
{"molecule": "O=C(NC(Cc1ccc(OCCCNc2ncccn2)cc1)C(=O)O)c1ccccc1 (centres unmarked)", "tested_target": "integrin αVβ3 (Homo sapiens, UniProt P05106+P06756)", "numeric_readout": 1310}

-- ask Give me measured IC50, please, for this molecule: O=C(NC(Cc1ccc(OCCCCCNc2ncccn2)cc1)C(=O)O)c1ccccc1 (centres unmarked)
-- reply 8770

-- ask Give me measured IC50, please, for this molecule: O=C(NC(Cc1ccc(OCCCCCNC2=NCCN2)cc1)C(=O)O)c1ccc(O)cc1 (centres unmarked)
-- reply 2.01

-- ask Give me measured IC50, please, for this molecule: `O=C(N[C@@H](Cc1ccc(OCCCCCNC2=NCCCN2)cc1)C(=O)O)c1cccc(O)c1`
-- reply 42.9

-- ask Give me measured IC50, please, for this molecule: `O=C(N[C@@H](Cc1ccc(OCCCCNC2=NCCN2)cc1)C(=O)O)c1cccc(O)c1`
-- reply 1.01

-- ask Give me measured IC50, please, for this molecule: O=C(NC(Cc1ccc(OCCCCNc2ncccn2)cc1)C(=O)O)c1ccc(O)cc1 (centres unmarked)
-- reply 5290

-- ask Give me measured IC50, please, for this molecule: `O=C(N[C@@H](Cc1ccc(OCCCNC2=NCCN2)cc1)C(=O)O)c1ccc(O)cc1`
-- reply 38.8

----------
Collected pIC50 values appear next to each entry.
Target: integrin αVβ3 (Homo sapiens, UniProt P05106+P06756)
Construct: using the isolated extracellular domain of integrins αVβ3 and α5β1; purchased Sino Biological
Assay: ELISA-like competitive integrin binding assay (vitronectin-coated plates)
// scale note: pIC50 = -log10(conc_M); give the bare number

{"compound": "O=C(N[C@@H](Cc1ccc(OCCCCNc2ncccn2)cc1)C(=O)O)c1ccccc1", "numeric_readout": 5.21}
{"compound": "[N-]=[N+]=NCCOCCOCCOc1ccc(C(=O)N[C@@H](Cc2ccc(OCCCNC3=NCCN3)cc2)C(=O)O)cc1 [10a]", "numeric_readout": 6.56}
{"compound": "O=C(N[C@@H](Cc1ccc(OCCCNC2=NCCCN2)cc1)C(=O)O)OCc1ccccc1", "numeric_readout": 8.33}
{"compound": "O=C(N[C@@H](Cc1ccc(OCCCCNC2=NCCN2)cc1)C(=O)O)OCc1ccccc1", "numeric_readout": 8.92}

Now, please, on to the next compound.
-- ask Give me measured pIC50, please, for this compound: `O=C(N[C@@H](Cc1ccc(OCCCNc2ncccn2)cc1)C(=O)O)OCc1ccccc1`
-- reply 6.63

----------
Molecular target: integrin α5β1 (Homo sapiens, UniProt P05556+P08648)
Construct: using the isolated extracellular domain of integrins αVβ3 and α5β1; purchased R&D
Assay: ELISA-like competitive integrin binding assay (fibronectin-coated plates)
Settings: isolated extracellular domain of human integrin α5β1, ligand fibronectin; Cilengitide as reference on all plates
Collected IC50 values appear next to each entry.
Return type: number; implicit unit µM.

Below: 2 molecules and their reported IC50.
{"molecule": "O=C(N[C@@H](Cc1ccc(OCCCCCNC2=NCCCN2)cc1)C(=O)O)c1cccc(O)c1 [7cc]", "IC50 [µM]": 0.21}
{"molecule": "O=C(N[C@@H](Cc1ccc(OCCCCNC2=NCCN2)cc1)C(=O)O)c1cccc(O)c1 [6ca]", "IC50 [µM]": 0.0199}

Now, please, on to the next molecule.
-- ask Give me measured IC50, please, for this molecule: O=C(N[C@@H](Cc1ccc(OCCCNC2=NCCN2)cc1)C(=O)O)c1ccc(O)cc1 [5ba]
-- reply 0.0434

----------
Target: integrin α5β1 (Homo sapiens, UniProt P05556+P08648)
Construct: using the isolated extracellular domain of integrins αVβ3 and α5β1; purchased R&D
Assay: ELISA-like competitive integrin binding assay (fibronectin-coated plates)
Collected pIC50 values appear next to each entry.
// scale note: pIC50 = -log10(conc_M); give the bare number

Below: 2 compounds and their reported pIC50.
{"molecular_string": "O=C(N[C@@H](Cc1ccc(OCCCCCNC2=NCCN2)cc1)C(=O)O)c1cccc(O)c1", "numeric_readout": 5.22}
{"molecular_string": "O=C(N[C@@H](Cc1ccc(OCCCCNC2=NCCN2)cc1)C(=O)O)c1ccccc1", "numeric_readout": 6.76}

Now, please, on to the next compound.
-- ask Provide measured pIC50 on integrin α5β1 (Homo sapiens, UniProt P05556+P08648) for `O=C(N[C@@H](Cc1ccc(OCCCCNC2=NCCCN2)cc1)C(=O)O)c1cccc(O)c1` please.
-- reply 6.97

----------
Target: integrin α5β1 (Homo sapiens, UniProt P05556+P08648)
Construct: using the isolated extracellular domain of integrins αVβ3 and α5β1; purchased R&D
Assay: ELISA-like competitive integrin binding assay (fibronectin-coated plates)
Details: isolated extracellular domain of human integrin α5β1, ligand fibronectin; Cilengitide as reference on all plates
pIC50: −log10 of the molar value.
property: pIC50

{"compound": "O=C(NC(Cc1ccc(OCCCNc2ncccn2)cc1)C(=O)O)c1ccccc1 (stereo not drawn) [5ab]", "pIC50": "< 5.00"}

-- ask Give me measured pIC50, please, for this compound: O=C(NC(Cc1ccc(OCCCCCNc2ncccn2)cc1)C(=O)O)c1ccccc1 (stereo not drawn) [7ab]
-- reply < 5.00

-- ask Give me measured pIC50, please, for this compound: O=C(NC(Cc1ccc(OCCCCCNc2ncccn2)cc1)C(=O)O)c1cccc(O)c1 (stereo not drawn) [7cb]
-- reply < 5.00
